Data credit: PubChem BioAssay (NCI)

Tested on: ACHN renal
experiment.summary: NCI-60 one-dose screen, 48 h (100 = growth as untreated, 0 = no growth, -100 = all killed)
condition: 10 µM unless noted
This is part of a sample that, as a whole, favours compounds with a hit. Of some 83,000 tested, about 20% had one in any assay. Activity calls are given as the source filed them. How the source made its calls: active means growth percent below 10; inactive means the rest.
measured.attribute: growth

Need growth, item "CCN1CCN(CCCN(C[C@H]2Cc3ccccc3CN2)[C@H]2CCCc3cccnc32)CC1"
87.6% (inactive)

I am curious: what growth value has been reported for "CNC(=O)c1cccc2cc(Oc3ccnc4cc(OCC5(N)CC5)c(OC)cc34)ccc12" ?
30.9% (inactive)

Any idea what its growth is? The molecule is "CCN1CCN(Cc2ccc(-c3cc4c(N[C@H](C)c5ccccc5)ncnc4[nH]3)cc2)CC1"
9.72% (active)

What does the data say about its growth? Entry: "Cn1nccc1Nc1nccc(-c2ccn([C@H](CO)c3ccc(Cl)c(F)c3)c(=O)c2)n1"
90.8% (inactive)

State the recorded growth for this entry: "COc1ccc(OC)c(NC2=C(SCCc3ccccc3)C(=O)c3ccccc3C2=O)c1"
77.2% (inactive)

Which growth reading was recorded for the molecule "CCOc1ccc(N=C(C)Nc2ccc(OCC)cc2)cc1" ?
99.5% (inactive)

Name the reported growth value associated with the molecule "N#Cc1c(NC(=O)c2ccco2)[n+]([O-])c2cc(F)c(F)cc2[n+]1[O-]"
97.8% (inactive)

Could you share which growth value was measured for "COc1cnc2c(c1)C(=O)c1c-2n(CCCN2CCC(O)CC2)c(=O)c2cc(Cl)ccc12" ?
8.76% (active)

What measured growth goes with "CC(C)CC(=O)Nc1n[nH]c2c1CN(C(=O)C1CCN(C)CC1)C2(C)C" ?
54.2% (inactive)

What growth value was documented for this molecule, O=C1C=CC2(NN=C(c3ccccc3)N2c2ccc(Cl)cc2)c2cccc(O)c21 (stereo not given) ?
61.1% (inactive)
